# System: SF-268
# protocol-notes: NCI tumour cell line growth inhibition, 48 h
Calls of active or inactive are those of the source. Rule as the data show it: active = GI50 up to about 1.1 µM and inactive = higher.
measurement-kind: GI50

[[record]]
compound = "C=C(C)[C@@]1(O[Si](C)(C)C)CCCC[C@@H]1CC(Sc1ccccc1)Sc1ccccc1"
study_system = "SF-268"
assay_value = "14.8 µM (inactive)"

[[record]]
compound = "CN(C)CCC(/C=C/c1ccccc1)=N\\Nc1ccc(Cl)cc1"
study_system = "SF-268"
assay_value = "2.07 µM (inactive)"

[[record]]
compound = "O=C(CN(c1ccc(S(=O)(=O)O)cc1)c1ccc(S(=O)(=O)O)cc1)Nn1cnc2ccc(S(=O)(=O)N(c3ccc(S(=O)(=O)O)cc3)c3ccc(S(=O)(=O)O)cc3)cc2c1=O"
study_system = "SF-268"
assay_value = "> 100 µM (inactive)"

[[record]]
compound = "Cn1ccnc1Cn1cc(-c2cccc(-c3cn[nH]c3)c2)cn1"
study_system = "SF-268"
assay_value = "44.6 µM (inactive)"

[[record]]
compound = "CC(CNC(=O)c1ccccc1)(CNC(=O)c1ccccc1)[N+](=O)[O-]"
study_system = "SF-268"
assay_value = "> 100 µM (inactive)"

[[record]]
compound = "COc1nncc2[nH]c(-c3ccccc3)cc12"
study_system = "SF-268"
assay_value = "65.8 µM (inactive)"

[[record]]
compound = "CCCCCCCCCCCCCC(=O)OC1C(CO)OC(=O)C1O (stereo not given)"
study_system = "SF-268"
assay_value = "> 100 µM (inactive)"

[[record]]
compound = "COc1cc(CCNC2=CC(=O)c3nc[nH]c3C2=O)ccc1O"
study_system = "SF-268"
assay_value = "38.9 µM (inactive)"

[[record]]
compound = "Cc1nc2c(n1Cc1ccc(Cl)cc1)C(=O)c1ccccc1C2=O"
study_system = "SF-268"
assay_value = "5.09 µM (inactive)"

[[record]]
compound = "CCC(/C=C/c1ccccc1)=N\\N=C(\\C=C\\c1ccccc1)CC"
study_system = "SF-268"
assay_value = "> 100 µM (inactive)"


----------
# Test system: DMS-273
# protocol-notes: NCI tumour cell line growth inhibition, 48 h
Active and inactive are the calls of the source. Cut-off read from the data, not from the text of the source: active = GI50 up to about 1.1 µM and inactive = higher.
Classes used: active, inactive

[[record]]
compound = "Cc1ccc([S+]([O-])C(C)C(Cl)c2ccccc2)cc1 (stereo not given)"
study_system = "DMS-273"
classification = "inactive"

[[record]]
compound = "COC(=O)c1cc2c(c(C(=O)OC)c1O)C(=O)C=CC2=O"
study_system = "DMS-273"
classification = "inactive"

[[record]]
compound = "CSc1nc(SC)c2c(C(N)=S)n[nH]c2n1"
study_system = "DMS-273"
classification = "inactive"

[[record]]
compound = "Cc1noc2cccc(OCc3ccccc3)c12"
study_system = "DMS-273"
classification = "inactive"

[[record]]
compound = "COc1ccccc1-n1c(N)c2c(C)c(-c3ccccc3)[nH]c2nc1=S"
study_system = "DMS-273"
classification = "inactive"

[[record]]
compound = "Cc1cc([N+](=O)[O-])ccc1Nc1cccc(Cl)c1C"
study_system = "DMS-273"
classification = "inactive"

[[record]]
compound = "C#Cc1cccc(N2C(=O)c3c(c(-c4ccccc4)c(-c4ccc(Cc5ccc(-c6c(-c7ccccc7)c7c(c(-c8ccccc8)c6-c6ccccc6)C(=O)N(c6cccc(C#C)c6)C7=O)cc5)cc4)c(-c4ccccc4)c3-c3ccccc3)C2=O)c1"
study_system = "DMS-273"
classification = "inactive"

[[record]]
compound = "CCOC(=O)N1C=NC23C(c4ccccc4)C(c4ccccc4)C12C(=O)N(C)C(=O)N3C (stereo not given)"
study_system = "DMS-273"
classification = "inactive"

[[record]]
compound = "O=C(CSc1nnc(-c2ccc(/N=C\\c3ccc(Cl)cc3)cc2)o1)Nc1ccc(Cl)cc1"
study_system = "DMS-273"
classification = "inactive"

[[record]]
compound = "N=S(=O)(c1ccccc1)c1ccccc1[N+](=O)[O-] (stereo not given)"
study_system = "DMS-273"
classification = "inactive"

[[record]]
compound = "CCOC(=O)/C(=C\\c1ccc(N(CCC#N)CCC#N)cc1)NC(=O)c1cc([N+](=O)[O-])ccc1Cl"
study_system = "DMS-273"
classification = "inactive"

[[record]]
compound = "CCCCCCCCCCCCCC(=O)OC1C(CO)OC(=O)C1O (stereo not given)"
study_system = "DMS-273"
classification = "inactive"

[[record]]
compound = "O=C(O)C1=C(C(=O)Nc2ccc(NC(=O)C3=C(C(=O)O)C4C=CC3C4)cc2)C2C=CC1C2"
study_system = "DMS-273"
classification = "inactive"

[[record]]
compound = "COc1ccc(-c2nc3ccc([N+](=O)[O-])cc3c(=O)[nH]2)cc1"
study_system = "DMS-273"
classification = "inactive"

[[record]]
compound = "N#Cc1c2c(c(N=[N+]=[N-])n3c1nc1ccccc13)CCCC2"
study_system = "DMS-273"
classification = "inactive"

[[record]]
compound = "COc1cccc(NC(=O)/C(Cc2nc3ccccc3nc2C)=N/NC(=O)C[n+]2ccccc2)c1"
study_system = "DMS-273"
classification = "inactive"

[[record]]
compound = "CCCCOC(=O)NC(=O)c1cn(C2CCCCC2)c(=O)[nH]c1=O"
study_system = "DMS-273"
classification = "inactive"

[[record]]
compound = "O=C1/C(=N\\O)S(=O)(=O)c2ccccc21"
study_system = "DMS-273"
classification = "inactive"

[[record]]
compound = "CC1CC[P+](c2ccccc2)(c2ccccc2)c2c1ccc1ccccc21 (stereo not given)"
study_system = "DMS-273"
classification = "active"

[[record]]
compound = "CCN(CC)C(=O)CC12CCCCC1=Nc1ccccc12 (stereo not given)"
study_system = "DMS-273"
classification = "inactive"

[[record]]
compound = "CC1=C2C(=CC(C)(C)[C@@H]2O)C(=O)[C@](C)(O)C12CC2 [ILLUDIN M]"
study_system = "DMS-273"
classification = "active"

[[record]]
compound = "CC(=O)NC1C(OCc2ccccc2)OC(COC(=O)CCCCCCCCCCNC(=O)c2cccc3c(=O)c4ccccc4[nH]c23)C(O)C1OC(C)C(=O)NC(C)C(=O)NC(CCC(N)=O)C(N)=O (stereo not given)"
study_system = "DMS-273"
classification = "inactive"

[[record]]
compound = "Cn1c(=O)nc2n(-c3ccc(Cl)cc3)c(-c3ccccc3)c(-c3ccccc3)nc-2c1=O"
study_system = "DMS-273"
classification = "inactive"

[[record]]
compound = "Cc1ccc(S(=O)(=O)SC(C)(C)C)cc1"
study_system = "DMS-273"
classification = "inactive"

[[record]]
compound = "C=C1C(C)C2C(Cc3ccccc3)NC(=O)C23C(OC(C)=O)/C=C/C(C)(O)CC(C)C/C=C/C3C1O (stereo not given)"
study_system = "DMS-273"
classification = "inactive"

[[record]]
compound = "CCCCCCCCCCCCCC(=O)OC1C(O)C(CO)OC(OC)C1NC(=O)N(CCCl)N=O (stereo not given)"
study_system = "DMS-273"
classification = "inactive"

[[record]]
compound = "O=C(CC1(O)C(=O)Nc2c(Cl)cc(Cl)cc21)c1ccc([N+](=O)[O-])cc1 (stereo not given)"
study_system = "DMS-273"
classification = "inactive"

[[record]]
compound = "COC1OC2COC(C)(C)OC2C(OC(C)=O)C1NC(=O)N(CCCl)N=O (stereo not given)"
study_system = "DMS-273"
classification = "inactive"

[[record]]
compound = "O=C(OC1CCC2OOC1O2)c1ccc([N+](=O)[O-])cc1 (stereo not given)"
study_system = "DMS-273"
classification = "inactive"

[[record]]
compound = "COc1cc(/C=C/c2ccc(OC)c(OC)c2OC)cc(OC)c1OC"
study_system = "DMS-273"
classification = "inactive"

[[record]]
compound = "Cc1ccc(NC(=O)CC2C(=O)Nc3ccccc3[S+]2[O-])c(C)c1 (stereo not given)"
study_system = "DMS-273"
classification = "inactive"

[[record]]
compound = "COc1ccc(OC2(c3cc(OC)ccc3OC)OC(=O)c3ccccc32)cc1 (stereo not given)"
study_system = "DMS-273"
classification = "inactive"

[[record]]
compound = "CCCCNC(=O)N/C=C1\\C(=O)Oc2ccccc2C1=O"
study_system = "DMS-273"
classification = "inactive"

[[record]]
compound = "O=C(c1ccccc1)c1c(-c2ccccc2)sc2nc3ccccc3nc12"
study_system = "DMS-273"
classification = "inactive"

[[record]]
compound = "C/C=C(\\CCOS(=O)(=O)c1ccc(C)cc1)[Si](C)(C)C"
study_system = "DMS-273"
classification = "inactive"

[[record]]
compound = "S=c1cc(S)c2c(=S)sc3nc4ccccn4c(=S)c3c2s1"
study_system = "DMS-273"
classification = "inactive"

[[record]]
compound = "CN(C)CCC(/C=C/c1ccccc1)=N\\Nc1ccc(Cl)cc1"
study_system = "DMS-273"
classification = "inactive"

[[record]]
compound = "COC(=O)C1C=CCON2CCc3c(n(C)c4ccccc34)C12 (stereo not given)"
study_system = "DMS-273"
classification = "inactive"

[[record]]
compound = "CCOC(=O)C(=Cc1cccnc1C)C(=O)OCC"
study_system = "DMS-273"
classification = "inactive"

[[record]]
compound = "COc1cc2c(cc1O)CN1CCC23C=C[C@@H](O)CC13 (stereo not given in full)"
study_system = "DMS-273"
classification = "inactive"

